B1: SPOPL (parent)
chain: AKREETKAMESQRAYRFVQGKDWG

Variants of: B1
Experiment: protein stability index of a GFP-peptide fusion (GPS, HEK-293T) (PSI 1-6); higher = more stable;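 further: lentivirally expressed fusions sorted by FACS into six bins by GFP to DsRed ratio, PSI derived from sequencing read proportions per bin multiplied by bin number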
Conditions: c terminus: a fixed tail appended
Kind request: treat 3 as inclusive, so protein stability index at 3 or higher is Satisfied, anything lower is Not satisfied.

• R16A = Satisfied
• F17H = Satisfied
• K7R = Not satisfied
• Q12C = Not satisfied
• R16D = Satisfied
• M9I = Satisfied
• Q12I = Not satisfied
• G20P = Not satisfied
• D22Q = Satisfied
• G20S = Satisfied
• K2T = Satisfied
• W23P = Satisfied
• W23R = Satisfied
• Q12H = Not satisfied
• W23G = Satisfied
• G24E = Satisfied
• T6Q = Satisfied
• G24L = Not satisfied
• R13F = Not satisfied
• Q19P = Satisfied
• A1M = Not satisfied
• V18M = Satisfied
• R3M = Satisfied
• Y15A = Satisfied
• T6L = Satisfied
• F17K = Satisfied
• Q19Y = Not satisfied
• R16K = Satisfied
• Q12S = Satisfied
• G24M = Not satisfied
• D22C = Satisfied
• T6R = Not satisfied
• A8Q = Satisfied
• A14W = Not satisfied
• E10H = Not satisfied
• R13V = Not satisfied
• E5P = Not satisfied
• Q12D = Satisfied
• A8H = Satisfied
• A8K = Satisfied
• F17D = Satisfied
• E4G = Not satisfied
• Y15Q = Satisfied
• M9N = Satisfied
• D22H = Satisfied
• F17W = Satisfied
• K7H = Not satisfied
• R16Y = Satisfied
• E4Y = Not satisfied
• E5N = Not satisfied
• S11L = Not satisfied
• T6F = Not satisfied
• Q12T = Not satisfied
• W23D = Satisfied
• R13W = Not satisfied
• S11H = Not satisfied
• E4M = Not satisfied
• K7E = Satisfied
• A8V = Not satisfied
• S11Y = Not satisfied
• A1E = Satisfied
• R3V = Satisfied
• R13M = Not satisfied
• M9R = Satisfied
• G20T = Satisfied
• K21V = Satisfied
• T6E = Satisfied
• E5R = Not satisfied
• G24N = Satisfied
• D22N = Not satisfied
• E5H = Not satisfied
• A1Y = Not satisfied
• S11Q = Satisfied
• F17I = Satisfied
• A14I = Satisfied
• M9C = Satisfied
• T6N = Satisfied
• A8S = Satisfied
• E4N = Not satisfied
• Q19E = Not satisfied
• E4I = Satisfied
